Each recorded value in this set is attributed to ChEMBL document CHEMBL1149585.

System: Mus musculus
Experiment: Toxicity in mouse assessed as tail bleeding time at 200 mg/kg, po after 30 mins
Format: organism-based
Parameters: dose 200 mg/kg, route oral
Conditions: in vivo, 0.5 h
Entries annotated with measured Activity
quantity-measured: Activity (s)

molecule | quantity-measured | obs-value
C[C@H]1O[C@@H](c2ccc(Cl)cc2)OC[C@H]1NC(=O)Cc1ccccc1 | Activity | 118.4
O=C(N[C@H]1CO[C@@H](c2cccc([N+](=O)[O-])c2)OC1)c1ccccc1 | Activity | 119.3
C[C@@H]1O[C@H](c2ccc(Cl)cc2)OC[C@H]1NC(=O)c1ccccc1 | Activity | 119.6
C[C@@H]1O[C@H](c2ccc(Cl)cc2)OC[C@H]1NC(=O)Cc1ccccc1 | Activity | 118.4
C[C@@H]1O[C@@H](c2cccc([N+](=O)[O-])c2)OC[C@H]1NC(=O)c1ccccc1 | Activity | 118.9
C[C@@H]1O[C@@H](c2ccc(Cl)cc2)OC[C@H]1NC(=O)c1ccccc1 | Activity | 118.3
O=C(N[C@H]1CO[C@H](c2ccc([N+](=O)[O-])cc2)OC1)c1ccccc1 | Activity | 119.5
C[C@@H]1O[C@H](c2ccccc2)OC[C@H]1NC(=O)c1ccccc1 | Activity | 118.7
O=C(N[C@H]1CO[C@@H](c2ccc([N+](=O)[O-])cc2)OC1)c1ccccc1 | Activity | 119.4

---

Tested on: Mus musculus
Experiment: Toxicity in mouse assessed as tail bleeding time at 200 mg/kg, po after 60 mins
Type: organism-based
Parameters: dose 200 mg/kg, route oral
Details: in vivo, 1 h
Entries annotated with measured Activity

molecule | unit-label | Activity
C[C@@H]1O[C@H](c2ccc([N+](=O)[O-])cc2)OC[C@H]1NC(=O)c1ccccc1 | s | 118.8
O=C(N[C@H]1CO[C@H](c2ccc([N+](=O)[O-])cc2)OC1)c1ccccc1 | s | 118.6
Cc1ccc([C@H]2OC[C@@H](NC(=O)Cc3ccccc3)CO2)cc1 | s | 118.4
C[C@@H]1O[C@@H](c2ccc(Cl)cc2)OC[C@H]1NC(=O)c1ccccc1 | s | 118.5
Cc1ccc([C@H]2OC[C@@H](NC(=O)Cc3ccccc3)[C@H](C)O2)cc1 | s | 119
C[C@@H]1O[C@H](c2ccccc2)OC[C@H]1NC(=O)Cc1ccccc1 | s | 118.6
O=C(Cc1ccccc1)N[C@H]1CO[C@@H](c2ccc(Cl)cc2)OC1 | s | 119.5
O=C(N[C@H]1CO[C@H](c2ccc(Cl)cc2)OC1)c1ccccc1 | s | 118.7

---

Tested on: Mus musculus
Assay: Toxicity in mouse assessed as tail bleeding time at 200 mg/kg, po after 45 mins
Format: organism-based
Design: dose 200 mg/kg, route oral
Conditions: in vivo, 0.75 h
Entries annotated with measured Activity

molecule | unit-label | Activity
Cc1ccc([C@@H]2OC[C@@H](NC(=O)Cc3ccccc3)[C@@H](C)O2)cc1 | s | 118.6
O=C(N[C@H]1CO[C@@H](c2ccc(Cl)cc2)OC1)c1ccccc1 | s | 118.9
C[C@@H]1O[C@H](c2cccc([N+](=O)[O-])c2)OC[C@H]1NC(=O)Cc1ccccc1 | s | 118.7
C[C@@H]1O[C@@H](c2ccccc2)OC[C@H]1NC(=O)Cc1ccccc1 | s | 119
C[C@@H]1O[C@H](c2ccc(Cl)cc2)OC[C@H]1NC(=O)c1ccccc1 | s | 118.6
O=C(Cc1ccccc1)N[C@H]1CO[C@H](c2ccc(Cl)cc2)OC1 | s | 119.2
C[C@@H]1O[C@H](c2cccc([N+](=O)[O-])c2)OC[C@H]1NC(=O)c1ccccc1 | s | 118.2
O=C(Cc1ccccc1)N[C@H]1CO[C@@H](c2cccc([N+](=O)[O-])c2)OC1 | s | 118.5
C[C@@H]1O[C@H](c2ccc([N+](=O)[O-])cc2)OC[C@H]1NC(=O)Cc1ccccc1 | s | 118.5
O=C(Cc1ccccc1)N[C@H]1CO[C@H](c2cccc([N+](=O)[O-])c2)OC1 | s | 118.5
C[C@@H]1O[C@@H](c2cccc([N+](=O)[O-])c2)OC[C@H]1NC(=O)c1ccccc1 | s | 119.2

---

System: Mus musculus
Assay: Inhibition of xylene-induced ear edema in Kunming mouse at 20 mg/kg, po after 2 hrs relative to control
Assay type: functional
quantity-measured: inhibition in vivo at 20 mg/kg

molecule | obs-value
C[C@@H]1O[C@@H](c2ccccc2)OC[C@H]1NC(=O)c1ccccc1 | 43.9%
O=C(Cc1ccccc1)N[C@H]1CO[C@@H](c2ccc([N+](=O)[O-])cc2)OC1 | 43.3%
C[C@@H]1O[C@H](c2cccc([N+](=O)[O-])c2)OC[C@H]1NC(=O)Cc1ccccc1 | 46.5%
O=C(Cc1ccccc1)N[C@H]1CO[C@@H](c2ccccc2)OC1 | 38.5%
O=C(N[C@H]1CO[C@@H](c2ccc([N+](=O)[O-])cc2)OC1)c1ccccc1 | 44.2%
O=C(N[C@H]1CCO[C@H](c2cccc([N+](=O)[O-])c2)OC1)c1ccccc1 | 20.8%
O=C(Cc1ccccc1)N[C@H]1CCCO[C@H](c2ccc(Cl)cc2)OC1 | 23.1%
O=C(Cc1ccccc1)N[C@H]1CCO[C@H](c2ccc(Cl)cc2)OC1 | 23.7%
Cc1ccc([C@H]2OC[C@@H](NC(=O)Cc3ccccc3)[C@H](C)O2)cc1 | 41%

---

Test system: Mus musculus
Assay: Toxicity in mouse assessed as tail bleeding time at 200 mg/kg, po after 90 mins
Assay type: organism-based
Set-up: dose 200 mg/kg, route oral
Conditions: in vivo, 1.5 h
Entries annotated with measured Activity
quantity-measured: Activity (s)

molecule | unit-label | obs-value
C[C@@H]1O[C@@H](c2ccc([N+](=O)[O-])cc2)OC[C@H]1NC(=O)c1ccccc1 | s | 118.9
O=C(Cc1ccccc1)N[C@H]1CO[C@@H](c2ccc(Cl)cc2)OC1 | s | 118.4
O=C(N[C@H]1CO[C@@H](c2ccc(Cl)cc2)OC1)c1ccccc1 | s | 119.4
O=C(N[C@H]1CO[C@H](c2ccc(Cl)cc2)OC1)c1ccccc1 | s | 119.6
C[C@@H]1O[C@@H](c2cccc([N+](=O)[O-])c2)OC[C@H]1NC(=O)c1ccccc1 | s | 118.3
Cc1ccc([C@H]2OC[C@@H](NC(=O)Cc3ccccc3)CO2)cc1 | s | 119.2
O=C(N[C@H]1CO[C@@H](c2ccc([N+](=O)[O-])cc2)OC1)c1ccccc1 | s | 119.4
O=C(Cc1ccccc1)N[C@H]1CO[C@@H](c2ccccc2)OC1 | s | 118.9

---

Tested on: Mus musculus
Experiment: Toxicity in mouse assessed as tail bleeding time at 200 mg/kg, po after 45 mins
Format: organism-based
Set-up: dose 200 mg/kg, route oral
Conditions: in vivo, 0.75 h
Entries annotated with measured Activity

molecule | Activity / s
O=C(Cc1ccccc1)N[C@H]1CO[C@H](c2ccc([N+](=O)[O-])cc2)OC1 | 120.2
Cc1ccc([C@H]2OC[C@@H](NC(=O)Cc3ccccc3)[C@H](C)O2)cc1 | 118.6
Cc1ccc([C@H]2OC[C@@H](NC(=O)Cc3ccccc3)CO2)cc1 | 118.6
Cc1ccc([C@H]2OC[C@@H](NC(=O)c3ccccc3)[C@H](C)O2)cc1 | 121
Cc1ccc([C@@H]2OC[C@@H](NC(=O)c3ccccc3)[C@H](C)O2)cc1 | 118.5
C[C@@H]1O[C@@H](c2ccc([N+](=O)[O-])cc2)OC[C@H]1NC(=O)c1ccccc1 | 119.2
C[C@@H]1O[C@@H](c2cccc([N+](=O)[O-])c2)OC[C@H]1NC(=O)Cc1ccccc1 | 118.7
C[C@@H]1O[C@@H](c2ccc([N+](=O)[O-])cc2)OC[C@H]1NC(=O)Cc1ccccc1 | 118.5
O=C(Cc1ccccc1)N[C@H]1CO[C@H](c2ccccc2)OC1 | 119.3
O=C(Cc1ccccc1)N[C@H]1CO[C@@H](c2ccc([N+](=O)[O-])cc2)OC1 | 120.2
C[C@@H]1O[C@@H](c2ccc(Cl)cc2)OC[C@H]1NC(=O)c1ccccc1 | 118.9

---

Entries annotated with measured Activity
Test system: Mus musculus
Assay: Toxicity in mouse assessed as tail bleeding time at 200 mg/kg, po after 30 mins
Assay type: organism-based
Set-up: dose 200 mg/kg, route oral
Settings: in vivo, 0.5 h
quantity-measured: Activity (s)

molecule | obs-value
C[C@@H]1O[C@@H](c2ccccc2)OC[C@H]1NC(=O)Cc1ccccc1 | 118.5
Cc1ccc([C@@H]2OC[C@@H](NC(=O)c3ccccc3)[C@H](C)O2)cc1 | 120.4
O=C(N[C@H]1CO[C@@H](c2ccc(Cl)cc2)OC1)c1ccccc1 | 118
C[C@@H]1O[C@H](c2ccc([N+](=O)[O-])cc2)OC[C@H]1NC(=O)c1ccccc1 | 117.8
O=C(Cc1ccccc1)N[C@H]1CO[C@H](c2ccc([N+](=O)[O-])cc2)OC1 | 120.7
Cc1ccc([C@H]2OC[C@@H](NC(=O)Cc3ccccc3)CO2)cc1 | 117.2
C[C@@H]1O[C@H](c2cccc([N+](=O)[O-])c2)OC[C@H]1NC(=O)Cc1ccccc1 | 120.1
Cc1ccc([C@H]2OC[C@H](NC(=O)Cc3ccccc3)CO2)cc1 | 117.2
O=C(Cc1ccccc1)N[C@H]1CO[C@@H](c2cccc([N+](=O)[O-])c2)OC1 | 117.7
C[C@@H]1O[C@H](c2ccccc2)OC[C@H]1NC(=O)Cc1ccccc1 | 118.5
C[C@@H]1O[C@H](c2cccc([N+](=O)[O-])c2)OC[C@H]1NC(=O)c1ccccc1 | 118.9
Cc1ccc([C@@H]2OC[C@@H](NC(=O)Cc3ccccc3)[C@@H](C)O2)cc1 | 117.9
O=C(N[C@H]1CO[C@H](c2ccc(Cl)cc2)OC1)c1ccccc1 | 119
O=C(Cc1ccccc1)N[C@H]1CO[C@H](c2ccccc2)OC1 | 118.5
